Sourced from patent US20190358181A1

test.details: Suramin plasma pharmacokinetics by LC-MS/MS, two compartment population PK model, pediatric patients
Assay type: in vivo, human
applied.conditions: human, plasma, iv, 460 mg, ID 012, 460 mg (529 mg/m^2) IV; read-out: 2-Day Plasma Conc
property.name: concentration at 2 days (µM)
Give a bare numeral; the unit µM is implied.

// query Determine from records and report concentration at 2 days for Cc1ccc(C(=O)Nc2ccc(S(=O)(=O)O)c3cc(S(=O)(=O)O)cc(S(=O)(=O)O)c23)cc1NC(=O)c1cccc(NC(=O)Nc2cccc(C(=O)Nc3cc(C(=O)Nc4ccc(S(=O)(=O)O)c5cc(S(=O)(=O)O)cc(S(=O)(=O)O)c45)ccc3C)c2)c1 [Suramin, suramin]
// result 13.8

---

test.details: Suramin plasma pharmacokinetics by LC-MS/MS, two compartment population PK model, pediatric patients
Assay type: in vivo, human
applied.conditions: human, plasma, iv, 680 mg, ID 001, 680 mg (591 mg/m^2) IV; read-out: 1-Hour Plasma Conc
property.name: concentration at 1 h (µM)
Give a bare numeral; the unit µM is implied.

// query Determine from records and report concentration at 1 h for Cc1ccc(C(=O)Nc2ccc(S(=O)(=O)O)c3cc(S(=O)(=O)O)cc(S(=O)(=O)O)c23)cc1NC(=O)c1cccc(NC(=O)Nc2cccc(C(=O)Nc3cc(C(=O)Nc4ccc(S(=O)(=O)O)c5cc(S(=O)(=O)O)cc(S(=O)(=O)O)c45)ccc3C)c2)c1
// result 101
